# credit: PubChem BioAssay

# ASSAY SYSTEM: Neurogenic locus notch homolog protein 3 (Homo sapiens)
# ASSAY PROCEDURE: small molecules binding NOTCH3 protein – biochemical, 635/667 nm fluorescence, primary screen (AID 1096)
# EXPERIMENTAL CONTEXT: small-molecule microarray, 635 nm fluorescence, higher = more signal
MEASUREMENT NAME: composite z-score

COMPOUND	REPORTED MEASUREMENT
C=C(/C(=C/C[C@@H](OC(C)=O)c1ccc(CO)o1)c1cnc2ccccc2c1)C(C)C	1.07
CCOC(=O)C1=C[C@@H](C(C)(C)C)N(S(=O)(=O)c2ccc(C)cc2)[C@H]1c1ccc(Cl)c(Cl)c1	1.09
C=C(CCCC)/C(=C/C[C@H](OC(C)=O)c1ccc(CO)o1)c1cc(C(=O)OC)ccc1OC	1.09
O=C(NCC(O)CO)[C@]1(CCS(=O)(=O)c2ccccc2)N=C(c2ccc(OCCCO)cc2)O[C@@H]1c1ccccc1 (some centres undefined)	-0.256
